# test_method_notes: Inhibition of Na+/K+ ATPase relative to digoxin
attribute_measured: Activity
I'd appreciate a reply containing only the number, no unit.

Completed entries (count: 2):
CO[C@H]1C[C@H](O[C@H]2CC[C@@]3(C)[C@H](CC[C@@H]4[C@@H]3CC[C@]3(C)[C@@H](C5=CC(=O)OC5)[C@@H](OC(C)=O)C[C@]43O)C2)O[C@@H](C)[C@@H]1O [OLEANDRIN] | 0.42
C[C@H]1O[C@@H](O[C@H]2[C@@H](O)C[C@H](O[C@H]3[C@@H](O)C[C@H](O[C@H]4CC[C@@]5(C)[C@H](CC[C@@H]6[C@@H]5CC[C@]5(C)[C@@H](C7=CC(=O)OC7)CC[C@]65O)C4)O[C@@H]3C)O[C@@H]2C)C[C@H](O)[C@@H]1O [DIGITOXIN] | 0.3

For this compound ( C[C@@H]1O[C@@H](O[C@@H]2C=C3CC[C@@H]4[C@H](CC[C@]5(C)[C@@H](c6ccc(=O)oc6)CC[C@]45O)[C@@]3(C)CC2)[C@H](O)[C@H](O)[C@H]1O [PROSCILLARIDIN] ), measured Activity is 0.054

For this compound ( C[C@H]1O[C@@H](O[C@H]2[C@@H](O)C[C@H](O[C@H]3[C@@H](O)C[C@H](O[C@H]4CC[C@@]5(C)[C@H](CC[C@@H]6[C@@H]5C[C@@H](O)[C@]5(C)[C@@H](C7=CC(=O)OC7)CC[C@]65O)C4)O[C@@H]3C)O[C@@H]2C)C[C@H](O)[C@@H]1O [DIGOXIN] ), measured Activity is 1
